experiment: Volume of distribution at steady state in Sprague-Dawley rat at 1 mg/kg, iv by LC-ESI-MS analysis; type: ADME, organism-based; conditions: in vivo, read-out: Vdss
Measure Name: Vd (L/kg)
// units = L/kg; emit number, no label

Inquiry: Note Vd for the compound shown: CC#C[C@@H](CC(=O)O)c1ccc(OC[C@H]2COc3ccc(Cl)cc3O2)cc1
Reply text: 0.182

====

assay: AUC (0 to t) in Sprague-Dawley rat at 1 mg/kg, iv by LC-ESI-MS analysis; assay type: ADME, organism-based; conditions: in vivo
Measure Name: AUC(0-t) (ng·h/mL)
// units = ng·h/mL; emit number, no label

Inquiry: Note AUC(0-t) for the compound shown: CC#C[C@@H](CC(=O)O)c1ccc(OC[C@H]2COc3ccc(Cl)cc3O2)cc1
Reply text: 71400
